// each record: one item and its IC50 for Tyrosine-protein kinase Lyn (Homo sapiens)

CCN(CC)CCOc1ccc(Nc2cc3c(cn2)cc(C(C)C)c(=O)n3C)nc1 ... > 5 µM

Let us move to another entry and its IC50.
Ask: Requested read-out IC50, target or system Tyrosine-protein kinase Lyn (Homo sapiens), entry CC(C)n1c(=O)c(-c2c(F)cccc2F)cc2cnc(Nc3ccc(F)cn3)cc21
Reply: > 5 µM

---

- System tested: Proto-oncogene tyrosine-protein kinase Src (Homo sapiens, UniProt P12931)
- Sequence (P12931 2-536 limits assumed): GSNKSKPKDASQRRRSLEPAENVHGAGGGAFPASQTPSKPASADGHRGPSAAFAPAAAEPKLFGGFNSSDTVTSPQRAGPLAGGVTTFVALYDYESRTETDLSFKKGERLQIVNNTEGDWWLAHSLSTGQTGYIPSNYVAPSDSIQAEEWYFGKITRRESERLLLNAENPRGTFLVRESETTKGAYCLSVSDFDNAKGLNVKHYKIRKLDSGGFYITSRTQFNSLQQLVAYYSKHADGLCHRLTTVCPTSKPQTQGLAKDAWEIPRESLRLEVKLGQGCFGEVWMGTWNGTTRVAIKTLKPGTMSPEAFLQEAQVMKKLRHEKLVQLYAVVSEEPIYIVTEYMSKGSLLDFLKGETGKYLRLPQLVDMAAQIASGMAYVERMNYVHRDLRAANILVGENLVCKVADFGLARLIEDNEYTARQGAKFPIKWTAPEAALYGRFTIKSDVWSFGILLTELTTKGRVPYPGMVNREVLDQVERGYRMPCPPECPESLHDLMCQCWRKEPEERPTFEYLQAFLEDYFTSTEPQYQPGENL
Endpoint label: IC50

Ask: Hello, I am looking for reported IC50 with Proto-oncogene tyrosine-protein kinase Src (Homo sapiens, UniProt P12931) for CC(C)n1c(=O)c(-c2c(F)cccc2F)cc2cnc(Nc3ccc(F)cn3)cc21 . Could you help?
Reply: > 5 µM

The reported numbers originate from ChEMBL document CHEMBL5725536.
